Target: UniProtKB Q92769
Sequence (Q92769 whole entry): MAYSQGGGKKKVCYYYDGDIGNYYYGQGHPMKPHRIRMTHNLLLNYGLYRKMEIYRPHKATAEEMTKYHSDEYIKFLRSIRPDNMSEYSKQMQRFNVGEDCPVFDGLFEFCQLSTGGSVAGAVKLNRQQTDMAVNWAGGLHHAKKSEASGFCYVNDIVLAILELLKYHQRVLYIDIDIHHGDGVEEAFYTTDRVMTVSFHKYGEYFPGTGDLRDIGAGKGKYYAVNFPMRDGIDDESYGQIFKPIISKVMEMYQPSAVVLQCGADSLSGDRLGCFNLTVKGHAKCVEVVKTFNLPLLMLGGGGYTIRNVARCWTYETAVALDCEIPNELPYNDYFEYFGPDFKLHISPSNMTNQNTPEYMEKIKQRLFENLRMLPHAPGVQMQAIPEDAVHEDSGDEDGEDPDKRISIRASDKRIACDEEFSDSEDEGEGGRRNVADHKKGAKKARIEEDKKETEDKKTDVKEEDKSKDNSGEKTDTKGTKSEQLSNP
Test: Inhibition of full length C-terminal His6x-tagged recombinant human HDAC2 expressed in baculovirus using Arg-His-Lys-Lys (Ac) as substrate after 2 hrs by fluorescence plate reader analysis
Measurement kind: IC50

| Structure smiles | Measurement |
| --- | --- |
| Cn1cccc1C(=O)N1CCCc2cc(C(=O)NO)ccc2C1 | > 50 µM |
| Cn1cccc1C(=O)N1Cc2ccc(C(=O)NO)cc2C1 | > 50 µM |
| Cn1cccc1C(=O)N1CCc2cc(C(=O)NO)ccc2C1 | > 50 µM |
| CC(C)(C)C(=O)N1Cc2ccc(C(=O)NO)cc2C1 | > 50 µM |
| CC(C)(C)C(=O)N1CCc2cc(C(=O)NO)ccc2C1 | > 50 µM |

Here's the next entry for you.
Please give the measured IC50 for this compound: Cn1cccc1C(=O)NCc1ccc(C(=O)NO)cc1
16 µM
